Measurement notes: P-glycoprotein substrates identified in KB-8-5-11 adenocarcinoma cell line, qHTS therapeutic library screen (AID 1346987); also: nearly all actives have a fitted effect of over 65% in size
Condition details: KB-8-5-11 (P-gp overexpressing) viability, CellTiter-Glo, 72 h; series mostly up to 44.5 µM
Records with an inconclusive call do not appear. The source made the active and inactive calls. Calls follow the shape of the dose curve; as a rule, active = well fitted inhibition curve with a large enough effect; inconclusive = small, poorly fitted or top-dose-only effect; inactive = flat fitted curve, though single readings scatter.
Possible outcomes: true = active, false = inactive

INSERT INTO assay_data (molecule, assigned_category) VALUES
  ('Nc1[nH]nc2nc3ccccc3nc12', 'false'),
  ('CCCCN(CCCC)C(=S)[S-].CCCCN(CCCC)C(=S)[S-].[Zn+2]', 'false'),
  ('[2H]C([2H])([2H])C(OC(=O)[C@H](C)N[P@](=O)(OC[C@H]1O[C@@H](n2ccc(=O)[nH]c2=O)[C@](C)(F)[C@@H]1O)Oc1ccccc1)C([2H])([2H])[2H]', 'false'),
  ('Cc1cc(Nc2cc(C)c(C#N)c(NC(C)CCCC(C)(C)O)n2)n[nH]1 (stereo not drawn)', 'true'),
  ('O=C(O)c1c[nH]c2c(ccc3ccccc32)c1=O', 'false'),
  ('O=C(c1ccc(F)c(F)c1Nc1ccc(I)cc1F)N1CC(O)(C2CCCCN2)C1 (stereo not drawn)', 'true'),
  ('COc1c(Nc2ncc(Cl)c(N[C@H]3[C@H](C(N)=O)[C@@H]4C=C[C@@H]3C4)n2)ccc2c1CCC(N1CCOCC1)CC2 (stereo partly drawn)', 'true'),
  ('C[C@H](NC(=O)C(C)(C)Oc1ccc(C(F)(F)F)cn1)[C@@H](Cc1ccc(Cl)cc1)c1cccc(C#N)c1', 'true'),
  ('CC(C)(C)n1nc(-c2cccc3ccccc23)c2c(N)ncnc21', 'false'),
  ('CCC[C@@H](NC(=O)N1C(=O)C(CC)(CC)[C@@H]1Oc1ccc(C(=O)N2CCN(C)CC2)cc1)c1ccc2c(c1)OCO2', 'true'),
  ('C=CC(=O)Nc1cccc(Nc2nc(Nc3ccccc3)ncc2C)c1', 'true'),
  ('OCC(CO)(CO)NCC(O)Cn1c2ccc(Cl)cc2c2cc(Cl)ccc21 (stereo not drawn)', 'false'),
  ('COc1cc(OC)cc(N(CCNC(C)C)c2ccc3ncc(-c4cnn(C)c4)nc3c2)c1', 'true');

---

Measurement notes: Primary qHTS for small molecule stabilizers of the endoplasmic reticulum resident proteome: Secreted ER Calcium Modulated Protein (SERCaMP) assay (AID 1508630); also: % is scaled to controls: 0 for no effect and ±100 for the full control effect
Condition details: SH-SY5Y GLuc-SERCaMP (Gaussia luciferase released on ER calcium loss) secretion, thapsigargin, luminescence; series mostly up to 38.4 µM
Inconclusive results are not listed. Calls of active or inactive are those of the source. Calls come from the whole dose curve; as a rule, active = well fitted inhibition curve with a large enough effect; inconclusive = small, poorly fitted or top-dose-only effect; inactive = no such curve, though single readings can be large or run the other way.
Endpoint name: activity change, negative = inhibition

INSERT INTO results (compound, experimental_result) VALUES
  ('CCCCCCCCC#CCC#CCC#CCCCC(=O)O', '-14.3% [at 3.88 µM] (inactive)'),
  ('O=C1C(=O)N(Cc2ccc(Cl)c(Cl)c2)c2ccccc21', 'inactive'),
  ('Cc1cc(Cn2cnc3c2C[C@@H](C(=O)O)N(C(=O)C(c2ccccc2)c2ccccc2)C3)ccc1N(C)C', 'inactive'),
  ('c1ccc(CN2CCC3(CCc4ccccc43)CC2)cc1', 'inactive'),
  ('CCCCCCCCCCCCCCC(F)C(=O)O (stereo not given)', '10.1% [at 3.88 µM] (inactive)'),
  ('N[C@@H](CCS(=O)O)C(=O)O', 'inactive'),
  ('NC1(C(=O)O)C[C@H](C(=O)O)[C@H](C(=O)O)C1 (stereo not given in full)', 'inactive'),
  ('CC1c2ccccc2CN1CC1=NCCN1 (stereo not given)', 'inactive'),
  ('COc1cccc2c1C(=O)c1c(O)c3c(c(O)c1C2=O)C[C@@](O)(C(=O)CO)C[C@@H]3O[C@@H]1C[C@H](N)[C@H](O)[C@H](C)O1', 'inactive'),
  ('OCCOCCN1CCN(Cc2cccc(Oc3ccccc3)c2)CC1', 'inactive');

---

Measurement notes: qHTS for Inhibitors of Plasmodium falciparum (HB3) proliferation (AID 504318); also: nearly all actives have a fitted effect of over 60% in size
Condition details: P. falciparum HB3 in erythrocytes, SYBR Green DNA, 72 h; series mostly up to 7.21 µM
Records with an inconclusive call do not appear. Activity calls are given as the source filed them. The call rests on the fitted dose curve; in most records, active means well fitted inhibition curve with a large enough effect; inconclusive means small, poorly fitted or top-dose-only effect; inactive means flat fitted curve, though single readings scatter.
Possible outcomes: active, inactive

INSERT INTO results (molecule, assigned_category) VALUES
  ('O=C1CCCC1C(O)c1ccc2ccccc2c1 (configuration not stated)', 'inactive'),
  ('CCOC(=O)NN=C1C[C@@H](O)[C@@H](O)[C@@H]2[C@H]3C(=O)N(Cc4ccc5c(c4)OCO5)C(=O)[C@@H]3CC[C@@H]12', 'inactive'),
  ('C[C@H]1Cc2c(-c3ccccc3)nc3c(c2CO1)CN(C(=O)Cc1cccs1)CC3', 'inactive'),
  ('O=C1OC2(CCCCC2)CC2=C1[C@H]1O[C@](CCCCN3C(=O)c4ccccc4C3=O)(Cc3ccccc31)O2', 'active'),
  ('C=CCOC(=O)N[C@H](C[N+](=O)[O-])c1ccccc1', 'inactive'),
  ('C#CC[C@@]1(C(=O)OC)C=C[C@@H](C)[C@H](c2ccccc2Br)N1C(=O)C(F)(F)F', 'inactive'),
  ('C=CC[C@@](C(C)=O)(C(=O)OC)[C@@H](NC(=O)OC(C)(C)C)c1ccccc1', 'inactive');

---

Measurement notes: qHTS for Inhibitors of Plasmodium falciparum (HB3) proliferation (AID 504318); also: nearly all actives have a fitted effect of over 60% in size
Condition details: P. falciparum HB3 in erythrocytes, SYBR Green DNA, 72 h; series mostly up to 7.21 µM
Records with an inconclusive call do not appear. Calls of active or inactive are those of the source. Calls follow the shape of the dose curve; as a rule, active = well fitted inhibition curve with a large enough effect; inconclusive = small, poorly fitted or top-dose-only effect; inactive = flat fitted curve, though single readings scatter.
Possible outcomes: class 1 = active, class 0 = inactive

INSERT INTO results (compound, assigned_category) VALUES
  ('CCCCCCCC1=Cc2ccccc2C(CC(C)=O)N1C(=O)OC (stereo not drawn)', 'class 1'),
  ('Cc1cccc(C)c1Nc1oc(-c2ccccc2)nc1C(C)(C)C', 'class 0'),
  ('C[C@H]1CC[C@H]2C(=O)N[C@H](Cc3ccccc3)C(=O)N2[C@H]1c1ccccc1', 'class 0'),
  ('COC(=O)C(C(C)=O)C1c2ccccc2C=C(C)N1C(=O)OC (stereo not drawn)', 'class 0'),
  ('C=C(C[C@]1(C(=O)OC)C[C@]2(CC=C(C)C)C(=O)C(C(=O)CC(C)C)=C(O)[C@@](CC=C(C)C)(C1)C2=O)C(=O)OC', 'class 0'),
  ('COC(=O)c1c(C(=O)OC)c2c3ccccc3cc(-c3ccccc3)n2c1C(=O)OC', 'class 0'),
  ('Cc1cc2c(c(=O)n1Cc1ccccc1)[C@H]1O[C@](CCCCN3C(=O)c4ccccc4C3=O)(Cc3ccccc31)O2', 'class 1'),
  ('COC(=O)C1=C(C)N(Cc2ccccc2)C(=S)NC1c1cccc(C(F)(F)F)c1 (stereo not drawn)', 'class 0'),
  ('CC(=O)C1=CN(CCC=Cc2ccccc2)C(=O)NC1c1ccccc1 (stereo not drawn)', 'class 0'),
  ('COc1cccc([C@@H]2Oc3ccc(Br)cc3C(=O)[C@@H]2OC(=O)N[C@H](C)C2CCCCC2)c1', 'class 0'),
  ('COc1ccc(-c2nc3c(c4c2C[C@H](c2ccccc2)OC4)CN(S(=O)(=O)c2ccc(Cl)c4nonc24)CC3)c(C)c1', 'class 0'),
  ('COCCN1C=C2C(=O)C(C)(OC(=O)C3CCCC3)C(=O)C(c3ccccc3)=C2C=C1CCCC(=O)OC (stereo not drawn)', 'class 0'),
  ('CC=COC(=O)N[C@@H](c1ccccc1)[C@]1(C(C)=O)CCOC1=O', 'class 0'),
  ('C=CCOC(=O)NC(c1ccc(F)c(F)c1)C(C(=O)COC)C(=O)OC (stereo not drawn)', 'class 0'),
  ('C=CCN1C(=O)[C@]2(OCCC=C[C@H]2C)c2ccccc21', 'class 0'),
  ('CCOC(=O)C1=CN(CCCc2cn(Cc3ccccc3)nn2)C(=O)NC1c1ccccc1 (stereo not drawn)', 'class 0'),
  ('COC(=O)C1=C(C)N(Cc2ccccc2)C(=NCC(C)C)NC1c1cccc(F)c1 (stereo not drawn)', 'class 0'),
  ('C=CCN1c2ccccc2[C@]23CCC(=O)N(CC4CC4)C2=NC(C(=O)OC)=C(C(=O)OC)[C@H]13', 'class 0'),
  ('CCN1C(=O)NC(c2cccc(F)c2)C(C(=O)OC)=C1C (stereo not drawn)', 'class 0'),
  ('COc1ccc(COC(=O)NN=C2C[C@@H](O)[C@@H](O)[C@@H]3[C@H]4C(=O)N([C@@H](C)c5ccccc5)C(=O)[C@@H]4CC[C@H]23)cc1', 'class 0'),
  ('C[C@@H]1C=CCCO[C@]12C(=O)N(CC1CC1)c1cccc(Br)c12', 'class 0'),
  ('COC(=O)CCC(=O)OC1(C)C(=O)C2=COC(c3ccc(OC)cc3)=CC2=C(Br)C1=O (stereo not drawn)', 'class 0'),
  ('COCC=CC1=CC2=CC(=O)C(C)(OC(=O)c3cnc4ccccc4n3)C(=O)C2=CN1CC(C)C (stereo not drawn)', 'class 0'),
  ('O=C1Nc2cccc(Br)c2[C@@]12O[C@H](COc1ccccc1)CC1=CCCC12 (stereo partly drawn)', 'class 0'),
  ('C#CCN1C(=O)CC[C@@]23C1=NC(C(=O)OC)=C(C(=O)OC)[C@@H]2N(C)c1ccccc13', 'class 0'),
  ('C=CCOC(=O)N[C@H](C(C(=O)OC)=C(C)NCc1ccccc1)c1ccc(Br)cc1', 'class 0'),
  ('COC(=O)C1=C(C(=O)OC)[C@@H]2N(C)c3ccccc3[C@@]23C[C@@H](C(=O)OC)N(C(=O)Nc2cccc(C#N)c2)C3=N1', 'class 0'),
  ('COC(=O)N[C@@H](c1ccc2ccccc2c1)C(C(C)=O)C(=O)OC (stereo partly drawn)', 'class 0'),
  ('COC(=O)[C@H]1O[C@@H](c2cc(OC)c(C)c(OC)c2O)[C@H](C)[C@@H](O)[C@@H]1C', 'class 0'),
  ('Cc1cccc(C)c1Nc1oc(-c2ccccc2)nc1-c1cccc2ccccc12', 'class 0'),
  ('COc1ccc(O[C@H]2C=C[C@@H](c3ccccc3)O[C@H]2CON=C2[C@H]3CCn4c(=O)n(-c5ccccc5)c(=O)n4[C@@H]3[C@H](O)[C@@H]3O[C@H]23)cc1', 'class 0'),
  ('CC(C)OC(=O)CC(NC(=O)OC(C)(C)C)c1ccccc1 (stereo not drawn)', 'class 0'),
  ('COC(=O)[C@H]1O[C@@H](c2cc(OC)c(C)c(OC)c2OCc2ccccc2)[C@H](C)[C@H]2O[C@@]12C', 'class 0');

Recorded values, source PubChem BioAssay (NCATS).
